Tm values for the sequences below.
protocol-notes: melting temperature; fluorescence melt of hairpins on a sequencing array, two-state fit, raised by 9.35 °C to match UV melts
cond: sodium 0.088 M
Response body: numeric value in °C, unit text excluded.

Field Tm (entry GATCGAGCCTTCGATC ((((((....)))))) ) reads 56.4

Record GGTGTATCGAAAGATACC (((..(((....)))))) . Reported Tm: 43.3

Record GCTAAGCGAAAGCCTTGC ((.(.((....)).).)) , field Tm: 34.6

GAGCTACGAAAGTACCTC (((.(((....))).))) yielded Tm of 30.6

Tm reported for this sequence GATCTGGGCTCAGATC ((((((....)))))) : 52.8

Recorded Tm (sequence GGGAGCGAAAGCTACCCC ((((((....)))..))) ): 59.8

src = the array DNA melting data of Ke et al. (doi:10.1101/2024.01.08.574731)
